// reported efflux ratio per item
- System: Caco-2 cells
- Experiment Summary: Caco-2 permeability
- Experimental Context: Table S9
// response body must contain only the number

Examples with their reported efflux ratio follow.
| Molecule | efflux ratio |
| --- | --- |
| COc1cc2c(Nc3cccc(Cl)c3F)c(C#N)cnc2cc1OCCON1CCN(C)CC1 [11a] | 7.49 |
| COc1cc(Cl)ccc1Nc1c(C#N)cnc2cc(OCCON3CCN(C)CC3)c(OC)cc12 [15a] | 6.24 |
| COc1cc2c(Nc3cccc(OC)c3F)c(C#N)cnc2cc1OCCON1CCN(C)CC1 [13a] | 12.36 |
| COc1cc2c(Nc3cccc(OC)c3Cl)c(C#N)cnc2cc1OCCON1CCN(C)CC1 [12a] | 3.58 |
| COc1cc(Nc2c(C#N)cnc3cc(OCCON4CCN(C)CC4)c(OC)cc23)c(F)cc1Cl [8a] | 6.22 |

Enquiry: What value of efflux ratio has been recorded for this entry: COc1cc(Nc2c(C#N)cnc3cc(OCCON4CCN(C)CC4)c(OC)cc23)ccc1Cl [14a]
Return: 18.96

* * *

// reported IC50 per item
- Test System: mutant BCR-ABL1 kinases
- Experiment Summary: Biochemical kinase inhibition, summary statements
- Experimental Context: read-out: IC50 against mutant BCR-ABL1 kinases

| Compound | IC50 |
| --- | --- |
| COc1cc2c(Nc3cccc(OC)c3F)c(C#N)cnc2cc1OCCON1CCN(C)CC1 [13a] | ≥ 15 nM |
| COc1cc(Nc2c(C#N)cnc3cc(OCCON4CCN(C)CC4)c(OC)cc23)c(F)cc1Cl [8a] | < 1 nM |

// moving on: another record for IC50
Enquiry: What value of IC50 has been recorded for this entry: COc1cc2c(Nc3cccc(OC)c3Cl)c(C#N)cnc2cc1OCCON1CCN(C)CC1 [12a]
Return: ≥ 15 nM

* * *

- Test System: BCR-ABL1 wt (Homo sapiens, UniProt P00519)
- Sequence (P00519 27-1130 limits assumed): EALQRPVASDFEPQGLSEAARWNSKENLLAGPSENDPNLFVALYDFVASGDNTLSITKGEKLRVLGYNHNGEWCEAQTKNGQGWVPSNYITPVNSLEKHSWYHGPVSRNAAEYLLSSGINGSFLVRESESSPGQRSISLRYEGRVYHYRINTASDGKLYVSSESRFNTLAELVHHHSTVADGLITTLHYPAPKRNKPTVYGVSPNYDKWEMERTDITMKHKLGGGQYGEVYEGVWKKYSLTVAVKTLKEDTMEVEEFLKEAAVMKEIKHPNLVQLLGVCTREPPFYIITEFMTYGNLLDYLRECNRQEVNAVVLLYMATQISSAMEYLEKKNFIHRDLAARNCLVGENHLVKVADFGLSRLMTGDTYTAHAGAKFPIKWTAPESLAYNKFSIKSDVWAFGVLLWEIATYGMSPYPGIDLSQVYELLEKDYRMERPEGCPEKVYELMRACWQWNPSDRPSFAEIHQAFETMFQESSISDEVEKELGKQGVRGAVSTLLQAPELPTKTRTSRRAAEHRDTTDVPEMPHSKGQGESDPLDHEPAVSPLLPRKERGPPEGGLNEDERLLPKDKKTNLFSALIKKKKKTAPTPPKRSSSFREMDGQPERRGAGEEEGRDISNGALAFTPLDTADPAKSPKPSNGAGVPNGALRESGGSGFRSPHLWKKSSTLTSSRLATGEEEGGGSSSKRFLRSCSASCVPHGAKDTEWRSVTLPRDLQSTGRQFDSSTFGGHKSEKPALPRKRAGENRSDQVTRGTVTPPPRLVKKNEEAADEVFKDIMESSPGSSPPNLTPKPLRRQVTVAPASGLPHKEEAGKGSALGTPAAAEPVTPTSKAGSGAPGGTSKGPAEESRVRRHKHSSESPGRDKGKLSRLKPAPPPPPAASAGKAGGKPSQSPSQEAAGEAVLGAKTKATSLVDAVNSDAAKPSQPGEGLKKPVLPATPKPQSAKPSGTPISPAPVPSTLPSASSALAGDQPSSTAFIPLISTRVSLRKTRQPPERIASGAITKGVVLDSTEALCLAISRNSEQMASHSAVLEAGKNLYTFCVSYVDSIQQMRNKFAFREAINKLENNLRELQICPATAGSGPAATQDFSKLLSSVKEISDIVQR
- Experiment Summary: KinaseProfiler enzymatic radiometric kinase assay
- Experimental Context: read-out: Kinase IC50 BCR-ABL1 wt; [ATP] = 10 µM, n = 2
Recorded Metric: pIC50
When answering, recall that pIC50 equals minus log10 of the concentration in mol/L, and write that number alone.

Examples with their reported pIC50 follow.
| Compound | pIC50 |
| --- | --- |
| COc1cc2c(Nc3cccc(OC)c3F)c(C#N)cnc2cc1OCCON1CCN(C)CC1 [13a] | 7.72 |
| COc1cc2c(Nc3cccc(OC)c3Cl)c(C#N)cnc2cc1OCCON1CCN(C)CC1 [12a] | 7.70 |
| COc1cc(Cl)ccc1Nc1c(C#N)cnc2cc(OCCON3CCN(C)CC3)c(OC)cc12 [15a] | 8.22 |

// moving on: another record for pIC50
Enquiry: What value of pIC50 has been recorded for this entry: COc1cc(Nc2c(C#N)cnc3cc(OCCON4CCN(C)CC4)c(OC)cc23)c(F)cc1Cl
Return: 9.00

* * *

- Experiment Summary: in vitro
- Experimental Context: human, Caco-2
recovery of 70% or higher: true. Under 70%: false.

| Molecule | Assigned Category |
| --- | --- |
| COc1cc2c(Nc3cccc(Cl)c3F)c(C#N)cnc2cc1OCCON1CCN(C)CC1 [11a] | false |

Enquiry: Is recovery at least 70%? Consider COCCc1ccc(OCC(O)CNC(C)C)cc1 (stereo not shown) [Metoprolol, reference compound]
Return: true

Enquiry: Try this molecule next: COc1cc(Nc2c(C#N)cnc3cc(OCCON4CCN(C)CC4)c(OC)cc23)c(F)cc1Cl
Return: false

Enquiry: Try this molecule next: COc1cc2c(Nc3cccc(OC)c3F)c(C#N)cnc2cc1OCCON1CCN(C)CC1 [13a]
Return: true

Enquiry: Try this molecule next: COc1cc(Cl)ccc1Nc1c(C#N)cnc2cc(OCCON3CCN(C)CC3)c(OC)cc12 [15a]
Return: true

Enquiry: Try this molecule next: COc1cc2c(Nc3cccc(OC)c3Cl)c(C#N)cnc2cc1OCCON1CCN(C)CC1 [12a]
Return: true

Enquiry: Try this molecule next: C[C@H]1O[C@@H](O[C@H]2[C@@H](O)C[C@H](O[C@H]3[C@@H](O)C[C@H](O[C@H]4CC[C@@]5(C)[C@H](CC[C@@H]6[C@@H]5C[C@@H](O)[C@]5(C)[C@@H](C7=CC(=O)OC7)CC[C@]65O)C4)O[C@@H]3C)O[C@@H]2C)C[C@H](O)[C@@H]1O [Digoxin, reference compound]
Return: true

* * *

- Test system: MDR1
- Experiment Summary: in vitro
- Experimental Context: dog, MDCK-MDR1
// reported efflux ratio per item
// response body must contain only the number

| Compound | Measured Number |
| --- | --- |
| COc1cc2c(Nc3cccc(Cl)c3F)c(C#N)cnc2cc1OCCON1CCN(C)CC1 [11a] | 4.15 |
| COCCc1ccc(OCC(O)CNC(C)C)cc1 (centres unmarked) [Metoprolol, reference compound] | 0.89 |
| COc1cc(Nc2c(C#N)cnc3cc(OCCON4CCN(C)CC4)c(OC)cc23)ccc1Cl [14a] | 6 |
| COc1cc(Nc2c(C#N)cnc3cc(OCCON4CCN(C)CC4)c(OC)cc23)c(F)cc1Cl | 26.4 |

// moving on: another record for efflux ratio
Enquiry: What value of efflux ratio has been recorded for this entry: COc1cc(Cl)ccc1Nc1c(C#N)cnc2cc(OCCON3CCN(C)CC3)c(OC)cc12 [15a]
Return: 4.2

* * *

- Experiment Summary: Metabolic stability in hepatocytes
- Type: in vitro ADME, human
- Experimental Context: 120 min
// reported Remaining Percentages per item
Express it in %; write the number only.

Examples with their reported Remaining Percentages follow.
| Molecule | Measured Number |
| --- | --- |
| COc1cc(Cl)ccc1Nc1c(C#N)cnc2cc(OCCON3CCN(C)CC3)c(OC)cc12 [15a] | 20.14 |
| COc1cc2c(Nc3cccc(Cl)c3F)c(C#N)cnc2cc1OCCON1CCN(C)CC1 [11a] | 18.60 |
| COc1cc2c(Nc3cccc(OC)c3Cl)c(C#N)cnc2cc1OCCON1CCN(C)CC1 [12a] | 35.84 |
| COc1cc2c(Nc3cccc(OC)c3F)c(C#N)cnc2cc1OCCON1CCN(C)CC1 [13a] | 54.89 |
| COc1cc(Nc2c(C#N)cnc3cc(OCCON4CCN(C)CC4)c(OC)cc23)ccc1Cl [14a] | 25.52 |

// moving on: another record for Remaining Percentages
Enquiry: What value of Remaining Percentages has been recorded for this entry: COc1cc(Nc2c(C#N)cnc3cc(OCCON4CCN(C)CC4)c(OC)cc23)c(F)cc1Cl
Return: 9.48

* * *

- System: MDR1
- Experiment Summary: in vitro
- Experimental Context: dog, MDCK-MDR1
Papp B→A of 300 nm/s or higher: Y. Under 300 nm/s: N.

Consider the following illustrative entries.
| Compound | Assigned Category |
| --- | --- |
| COCCc1ccc(OCC(O)CNC(C)C)cc1 (stereo not shown) [Metoprolol, reference compound] | N |
| COc1cc(Nc2c(C#N)cnc3cc(OCCON4CCN(C)CC4)c(OC)cc23)ccc1Cl [14a] | N |
| C[C@H]1O[C@@H](O[C@H]2[C@@H](O)C[C@H](O[C@H]3[C@@H](O)C[C@H](O[C@H]4CC[C@@]5(C)[C@H](CC[C@@H]6[C@@H]5C[C@@H](O)[C@]5(C)[C@@H](C7=CC(=O)OC7)CC[C@]65O)C4)O[C@@H]3C)O[C@@H]2C)C[C@H](O)[C@@H]1O [Digoxin, reference compound] | N |

Enquiry: Is Papp B→A at least 300 nm/s? Consider COc1cc2c(Nc3cccc(OC)c3Cl)c(C#N)cnc2cc1OCCON1CCN(C)CC1 [12a]
Return: Y

Enquiry: Try this compound next: COc1cc(Cl)ccc1Nc1c(C#N)cnc2cc(OCCON3CCN(C)CC3)c(OC)cc12 [15a]
Return: N

Enquiry: Try this compound next: COc1cc2c(Nc3cccc(OC)c3F)c(C#N)cnc2cc1OCCON1CCN(C)CC1 [13a]
Return: Y

* * *

// reported Remaining Percentages per item
- Experiment Summary: Metabolic stability in hepatocytes
- Assay type: in vitro ADME, human
- Experimental Context: 30 min
Express it in %; write the number only.

Examples with their reported Remaining Percentages follow.
| Compound | Endpoint Unit | Remaining Percentages |
| --- | --- | --- |
| COc1cc2c(Nc3cccc(Cl)c3F)c(C#N)cnc2cc1OCCON1CCN(C)CC1 [11a] | % | 66.92 |
| COc1cc2c(Nc3cccc(OC)c3Cl)c(C#N)cnc2cc1OCCON1CCN(C)CC1 [12a] | % | 80.64 |
| COc1cc(Nc2c(C#N)cnc3cc(OCCON4CCN(C)CC4)c(OC)cc23)ccc1Cl [14a] | % | 68.12 |
| COc1cc(Nc2c(C#N)cnc3cc(OCCON4CCN(C)CC4)c(OC)cc23)c(F)cc1Cl | % | 52.48 |

Enquiry: What value of Remaining Percentages has been recorded for this entry: COc1cc(Cl)ccc1Nc1c(C#N)cnc2cc(OCCON3CCN(C)CC3)c(OC)cc12 [15a]
Return: 63.53

Enquiry: Try this compound next: COc1cc2c(Nc3cccc(OC)c3F)c(C#N)cnc2cc1OCCON1CCN(C)CC1 [13a]
Return: 95.67
